# ASSAYED_TARGET: PLA2 N117W (Sus scrofa, UniProt P00592, N139W)
# ASSAY_NOTES: Bile salt binding by Trp emission, N117W PLA2
# STATED_CONDITIONS: read-out: KEB
REPORTED_METRIC: Kd (µM)
Give the value, in units of µM, as a plain number.

Incoming: If you can, please state the reported Kd value of C[C@H](CCC(=O)NCCS(=O)(=O)O)[C@H]1CC[C@H]2[C@@H]3[C@H](O)C[C@@H]4C[C@H](O)CC[C@]4(C)[C@H]3CC[C@]12C [TCDOC, taurochenodeoxycholate] .
Outgoing: 7

* * *

# ASSAYED_TARGET: PLA2 Δ62-66 (Sus scrofa, UniProt P00592, DEL84-88)
# Construct: made in house
# ASSAY_NOTES: Bile salt binding by Trp emission, Δ62-66 PLA2
# Design: species or system pig
# STATED_CONDITIONS: Δ62-66; read-out: KEB
REPORTED_METRIC: pKd
FYI, pKd means -log10 of a concentration in mol per litre.

Incoming: If you can, please state the reported pKd value of C[C@H](CCC(=O)NCCS(=O)(=O)O)[C@H]1CC[C@H]2[C@@H]3[C@H](O)C[C@@H]4C[C@H](O)CC[C@]4(C)[C@H]3CC[C@]12C [TCDOC, taurochenodeoxycholate] .
Outgoing: 4.39

* * *

# Kd listing for each entry below
# ASSAYED_TARGET: PLA2 L19W/W3F (Sus scrofa, UniProt P00592, L41W/W25F)
# ASSAY_NOTES: Bile salt binding by Trp emission, L19W/W3F PLA2
# STATED_CONDITIONS: read-out: KEB
Give the value, in units of µM, as a plain number.

INSERT INTO assay_data (compound, observed) VALUES
  ('C[C@H](CCC(=O)NCCS(=O)(=O)O)[C@H]1CC[C@H]2[C@@H]3CC[C@@H]4C[C@H](O)CC[C@]4(C)[C@H]3C[C@H](O)[C@]12C [TDOC, taurodeoxycholate]', 44);

Incoming: If you can, please state the reported Kd value of C[C@H](CCC(=O)NCCS(=O)(=O)O)[C@H]1CC[C@H]2[C@@H]3[C@H](O)C[C@@H]4C[C@H](O)CC[C@]4(C)[C@H]3CC[C@]12C [TCDOC, taurochenodeoxycholate] .
Outgoing: 3

* * *

# ASSAYED_TARGET: PLA2 (Sus scrofa, UniProt P00592)
# Construct: made in house
# Sequence (P00592 23-146): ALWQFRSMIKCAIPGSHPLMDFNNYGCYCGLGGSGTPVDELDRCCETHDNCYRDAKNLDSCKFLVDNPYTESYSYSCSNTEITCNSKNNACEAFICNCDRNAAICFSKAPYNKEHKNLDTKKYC
# ASSAY_NOTES: Isothermal calorimetric titration of PLA2 with bile salt
# Format: binding, pig
# STATED_CONDITIONS: ITC, 8.5 μM PLA2; read-out: KEB
pKd: −log10 of the molar value.
REPORTED_METRIC: pKd

Incoming: Give pKd (PLA2 (Sus scrofa, UniProt P00592)) of the following compound: C[C@H](CCC(=O)NCCS(=O)(=O)O)[C@H]1CC[C@H]2[C@@H]3[C@@H](O)C[C@@H]4C[C@H](O)CC[C@]4(C)[C@H]3CC[C@]12C [TUDOC, tauroursodeoxycholate]
Outgoing: > 5.70

* * *

# ASSAYED_TARGET: Wild-Type PLA2 (Sus scrofa)
# Construct: made in house
# ASSAY_NOTES: Decylsulfate binding to wild-type PLA2 (3W), Trp emission
# Parameters: species or system pig
# STATED_CONDITIONS: 3W + Chol (0.2 mM cholate); read-out: K1^# decylsulfate binding
REPORTED_METRIC: pKd
FYI, pKd means -log10 of a concentration in mol per litre.

Incoming: Give pKd (Wild-Type PLA2 (Sus scrofa)) of the following compound: CCCCCCCCCCOS(=O)(=O)O [Decylsulfate]
Outgoing: 4.30

* * *

# ASSAYED_TARGET: Wild-Type PLA2 (Sus scrofa)
# Construct: made in house
# ASSAY_NOTES: Decylsulfate binding to wild-type PLA2 (3W), Trp emission
# Set-up: species or system pig
# STATED_CONDITIONS: 3W + 0.2 mM TCDOC; read-out: K2^# decylsulfate binding
REPORTED_METRIC: Kd
Answer as a quantity: numeral, then unit.

Incoming: Give Kd (Wild-Type PLA2 (Sus scrofa)) of the following compound: CCCCCCCCCCOS(=O)(=O)O [Decylsulfate]
Outgoing: 540 µM

* * *

# ASSAYED_TARGET: human pancreatic IB PLA2 (Homo sapiens, UniProt P04054)
# Construct: gift of Dr. Suren Tatulian (Orlando, Fla.)
# ASSAY_NOTES: Rate-lowering of hydrolysis of DMPC + 0.05 mole fraction cholate vesicles by human pancreatic PLA2
# Format: biochemical
# STATED_CONDITIONS: 0.03 mole fraction; DMPC + 0.05 mole fraction cholate
# binarize Relative Rate-lowering (%) Activity, hPLA2: threshold 50% inclusive, high side TRUE, low side FALSE

INSERT INTO results (compound, assigned_class) VALUES
  ('C/C=C1\C(=O)C[C@H]2[C@@H]3CCC4=CC(=O)CC[C@]4(C)[C@H]3CC[C@]12C', 'TRUE'),
  ('O=C1[C@H](CC[C@H](O)c2ccc(F)cc2)[C@@H](c2ccc(O)cc2)N1c1ccc(F)cc1', 'FALSE'),
  ('CC(=CCCC(C)C1CCC2(C)C3=CCC4C(C)(C)C(O)CCC4(C)C3CCC12C)C(=O)O (centres unmarked)', 'TRUE'),
  ('CC=C1C(O)C[C@H]2[C@@H]3CCC4=CC(=O)CC[C@]4(C)[C@H]3CC[C@]12C (some centres unmarked)', 'TRUE');

Pending compound:
Incoming: Please check the record C[C@H](CCC(=O)NCCS(=O)(=O)O)[C@H]1CC[C@H]2[C@@H]3[C@H](O)C[C@@H]4C[C@H](O)CC[C@]4(C)[C@H]3CC[C@]12C [TCDOC, taurochenodeoxycholate] and state if its Relative Rate-lowering (%) Activity, hPLA2 is at or above 50%.
Outgoing: TRUE

* * *

# ASSAYED_TARGET: PLA2 (Sus scrofa, UniProt P00592)
# Construct: made in house
# ASSAY_NOTES: Isothermal calorimetric titration of PLA2 with bile salt
# Assay type: binding, pig
# STATED_CONDITIONS: KEB, ITC, 8.5 μM PLA2
REPORTED_METRIC: Kd (µM)
Give the value, in units of µM, as a plain number.

Incoming: If you can, please state the reported Kd value of C[C@H](CCC(=O)NCCS(=O)(=O)O)[C@H]1CC[C@H]2[C@@H]3[C@H](O)C[C@@H]4C[C@H](O)CC[C@]4(C)[C@H]3CC[C@]12C [TCDOC, taurochenodeoxycholate] .
Outgoing: 9

* * *

# ASSAYED_TARGET: Wild-Type PLA2 (Sus scrofa)
# Construct: made in house
# ASSAY_NOTES: Decylsulfate binding to wild-type PLA2 (3W), Trp emission
# Design: species or system pig
# STATED_CONDITIONS: 3W, no additive; read-out: K1^# decylsulfate binding
REPORTED_METRIC: pKd
FYI, pKd means -log10 of a concentration in mol per litre.

Incoming: If you can, please state the reported pKd value of CCCCCCCCCCOS(=O)(=O)O [Decylsulfate] .
Outgoing: 4.22

* * *

# ASSAYED_TARGET: PLA2 R6M/K10M (Sus scrofa, UniProt P00592, K32M/R28M)
# ASSAY_NOTES: Bile salt binding by Trp emission, R6M/K10M PLA2
# Design: species or system pig
# STATED_CONDITIONS: read-out: KEB
REPORTED_METRIC: Kd (µM)
Give the value, in units of µM, as a plain number.

Incoming: If you can, please state the reported Kd value of C[C@H](CCC(=O)NCCS(=O)(=O)O)[C@H]1CC[C@H]2[C@@H]3CC[C@@H]4C[C@H](O)CC[C@]4(C)[C@H]3C[C@H](O)[C@]12C [TDOC, taurodeoxycholate] .
Outgoing: 10

* * *

# ASSAYED_TARGET: PLA2 W3F/R6W mutant (Sus scrofa, UniProt P00592, R28W/W25F)
# Construct: made in house
# ASSAY_NOTES: Decylsulfate binding to W3F/R6W mutant PLA2 (6W), Trp emission
# Design: species or system pig
# STATED_CONDITIONS: 6W + 0.2 mM TCDOC; read-out: K2^# decylsulfate binding
REPORTED_METRIC: Kd
Answer as a quantity: numeral, then unit.

Incoming: Give Kd (PLA2 W3F/R6W mutant (Sus scrofa, UniProt P00592, R28W/W25F)) of the following molecule: CCCCCCCCCCOS(=O)(=O)O [Decylsulfate]
Outgoing: 650 µM

* * *

# ASSAYED_TARGET: Wild-Type PLA2 (Sus scrofa, UniProt P00592)
# Construct: made in house
# Sequence (P00592 23-146): as above
# ASSAY_NOTES: Decylsulfate binding to wild-type PLA2 (3W), Trp emission
# Design: species or system pig
# STATED_CONDITIONS: 3W, no additive; read-out: K2^# decylsulfate binding
REPORTED_METRIC: pKd
FYI, pKd means -log10 of a concentration in mol per litre.

Incoming: If you can, please state the reported pKd value of CCCCCCCCCCOS(=O)(=O)O [Decylsulfate] .
Outgoing: 3.19

Measured values drawn from patent US20080139520A1 for this set.
